Test system: pigweed (Amaranthus retroflexus)
PROTOCOL_NOTES: Test A postemergence
Format: in vivo
TEST_CONTEXT: 125 g ai/ha, postemergence; visual rating after approx. 10 d, 0 to 100 scale (0 no effect, 100 complete control)
Text: […]
QUANTITY_KIND: Plant response rating, Pigweed
Give bare numbers.

Examples from the recorded data:
CN1CC(c2ccc(Br)cc2)C(C(=O)Nc2ccccc2S(C)(=O)=O)C1=O (centres unmarked) [Compound 565] | 20
CN1CC(c2cccc(OC(F)F)c2)C(C(=O)Nc2ccccc2F)C1=O (centres unmarked) [Compound 618] | 0
CC(C)Oc1cccc(C2CN(C)C(=O)C2C(=O)Nc2ccccc2C(F)(F)F)c1 (centres unmarked) [Compound 652] | 0
CN1CC(c2c(F)cccc2F)C(C(=O)Nc2cccc(F)c2F)C1=O (centres unmarked) [Compound 547] | 0

Look up Plant response rating, Pigweed: O=C(Nc1ccccc1F)C1C(=O)N(CC=CBr)CC1c1cccc(C(F)(F)F)c1 (centres unmarked) [Compound 526]
0

* * *

Hi there, I'd appreciate the recorded pest or weed control at 500 g/ha for every entry that follows.
Tested on: giant foxtail (Setaria faberii)
PROTOCOL_NOTES: Test A postemergence
Format: in vivo
TEST_CONTEXT: Setaria faberi, post-emergence, 240 h, Postemergence, 500 g ai/ha; visual injury, 0 to 100 scale (0 no effect, 100 complete control), approx. 10 d; read-out: Plant response rating, Foxtail, Giant
Answers are plain numbers, in %.

Examples from the recorded data:
CSc1ccccc1NC(=O)[C@H]1C(=O)N(C)C[C@@H]1c1cccc(C(F)(F)F)c1 | 80
Cc1ccc([C@H]2CN(C)C(=O)[C@@H]2C(=O)Nc2ccc(F)c(F)c2F)cc1 | 90
CN1C[C@H](c2ccc3c(c2)CCO3)[C@@H](C(=O)Nc2ccc(F)c(F)c2F)C1=O | 90

Switching to the query record.
Look up pest or weed control at 500 g/ha: CC(C)c1cccc([C@H]2CN(C)C(=O)[C@@H]2C(=O)Nc2cccc(F)c2F)c1
90

* * *

Test system: ryegrass, Italian (Italian ryegrass, Lolium multiflorum)
PROTOCOL_NOTES: Test A postemergence
Type: in vivo
TEST_CONTEXT: 125 g ai/ha, postemergence; visual injury rating on 0 to 100 scale (0 no effect, 100 complete control), approx. 10 d
QUANTITY_KIND: Ryegrass, Italian plant response rating
Give bare numbers.

Examples from the recorded data:
COc1c(F)ccc(NC(=O)C2C(=O)N(C)CC2c2cccc(OC(F)(F)C(F)F)c2)c1F (stereo not shown) [Compound 430] | 30
O=C1NCC(c2ccnc(C(F)(F)F)c2)C1C(=O)Nc1cccc(F)c1F (racemic) [Compound 514] | 20
Cc1ccc(C2CNC(=O)C2C(=O)Nc2ccccc2S(C)(=O)=O)c(F)c1 (racemic) [Compound 507] | 0
COC(=O)c1ccccc1NC(=O)C1C(=O)NCC1c1ccc(F)c(F)c1 (stereo not shown) [Compound 417] | 0
O=C(Nc1ccccc1F)C1C(=O)N(C2C=CCCC2)CC1c1cccc(C(F)(F)F)c1 (stereo not shown) [Compound 524] | 0
O=C1NCC(c2cccc(OC(F)(F)C(F)F)c2)C1C(=O)Nc1ccccc1C(F)F (stereo not shown) [Compound 391] | 30
COc1c(F)ccc(NC(=O)C2C(=O)NCC2c2ccc(F)c(F)c2)c1F (stereo not shown) [Compound 419] | 0
O=C1NCC(c2cccc(OCC(F)F)c2)C1C(=O)Nc1ccccc1F (racemic) [Compound 387] | 0
Cc1ccc(C2CN(C)C(=O)C2C(=O)Nc2cccc(F)c2F)cc1F (stereo not shown) [Compound 464] | 70
Cc1cc(C2CN(C)C(=O)C2C(=O)Nc2ccc(F)cc2F)ccc1F (stereo not shown) [Compound 404] | 40

Could you report Ryegrass, Italian plant response rating for every entry in the following list?
1. O=C1NCC(c2cccc(OCC(F)F)c2)C1C(=O)Nc1ccc(F)c(F)c1F (stereo not shown) [Compound 407]
2. CN1CC(c2ccc3c(c2)OC(F)(F)O3)C(C(=O)Nc2ccccc2F)C1=O (stereo not shown) [Compound 441]
3. CN1CC(c2cccc(OC(F)(F)C(F)F)c2)C(C(=O)Nc2ccc(F)cc2F)C1=O (stereo not shown) [Compound 393]

0
60
40

Ref: patent US12077503B2
